assay: qHTS of pediatric cancer cell lines to identify multiple opportunities for drug repurposing: Primary screen for SJ-GBM2 cells (AID 1347091); details: SJ-GBM2 viability, CellTiter-Glo luminescence, 48 h; series mostly up to 46 µM
Results filed as inconclusive are left out. Activity calls are given as the source filed them. The call rests on the fitted dose curve; in most records, active means well fitted cell-killing curve with a large enough effect; inconclusive means small, poorly fitted or top-dose-only effect; inactive means no such curve, though single readings can be large or run the other way.
Tick one outcome: T for active, F for inactive

Ask: Which result was noted for this compound in the test: C=CCCCCCCCCC(=O)O
Reply: F

Ask: Which result was noted for this compound in the test: CCC1C(=O)OCC1Cc1cncn1C (stereo not drawn)
Reply: F

Ask: Which result was noted for this compound in the test: Nc1ccc(O)c([N+](=O)[O-])c1
Reply: F

Ask: Which result was noted for this compound in the test: CNC(=O)c1c(I)c(NC(=O)CCCCC(=O)Nc2c(I)c(C(=O)O)c(I)c(C(=O)NC)c2I)c(I)c(C(=O)O)c1I
Reply: F

Ask: Which result was noted for this compound in the test: N=C(N)N
Reply: F

Ask: Which result was noted for this compound in the test: CN(C)c1ccc(N=NS(=O)(=O)O)cc1
Reply: F

Ask: Which result was noted for this compound in the test: Cc1ccc(O)c(-n2nc3ccccc3n2)c1
Reply: F

Ask: Which result was noted for this compound in the test: COc1cc(NC(C)CCCN)c2ncccc2c1 (stereo not drawn)
Reply: F

Ask: Which result was noted for this compound in the test: O=c1cc(-c2ccccc2)oc2ccccc12
Reply: F

Ask: Which result was noted for this compound in the test: CCOC(=O)c1ccccc1O
Reply: F

Ask: Which result was noted for this compound in the test: CC(=O)c1ccc(OCC(=O)N2CCCCC2)cc1
Reply: F

Ask: Which result was noted for this compound in the test: CCCCCCCCCCCC(=O)[O][Sn]([CH2]CCC)([CH2]CCC)[O]C(=O)CCCCCCCCCCC
Reply: F

Ask: Which result was noted for this compound in the test: COC(=O)Nc1nc2ccc(C(=O)C3CC3)cc2[nH]1
Reply: T

Ask: Which result was noted for this compound in the test: CCCC(=O)OC[C@@H](OC(=O)CCC)[C@@H](OC(=O)CCC)[C@H](Cn1c2nc(=O)[nH]c(=O)c-2nc2cc(C)c(C)cc21)OC(=O)CCC
Reply: F

Ask: Which result was noted for this compound in the test: COc1cccc2c1C(=O)c1c(O)c3c(c(O)c1C2=O)C[C@@](O)(C(=O)CO)C[C@@H]3O[C@H]1C[C@H](N)[C@H](O[C@@H]2CCCCO2)[C@H](C)O1
Reply: T

Ask: Which result was noted for this compound in the test: O=C(O)c1ccccc1Nc1cccc(C(F)(F)F)c1
Reply: F

Ask: Which result was noted for this compound in the test: CCCCCCOc1ccccc1C(N)=O
Reply: F

Ask: Which result was noted for this compound in the test: C/C(=N\O)c1ccc(OCC(=O)N2CCCCC2)cc1
Reply: F

---

Tested on: UISO
Assay: qHTS assay to identify novel small-molecules to repurpose for Merkel cell carcinoma treatment (AID 1296009); further: nearly all actives have a fitted effect of over 60% in size
Details: MCC and control cell lines, CellTiter-Glo viability, 72 h; series mostly up to 46 µM
Description: MCC is a rare and aggressive neuroendocrine skin cancer with limited treatment options. Approximately 80% of MCCs have the Merkel cell polyomavirus (MCPyV) DNA integrated into the host genome (virus-positive: VP-MCC) and viral oncogenes drive oncogenesis. The remaining MCCs are virus-negative (VN-MCC) and are caused by UV mutagenesis. […] Using cell viability as a readout (CellTiter-Glo assay) we found both overlapping and distinct drugs that can be repurposed for the treatment of VP-MCC and VN-MCC. […]
Records with an inconclusive call do not appear. Activity calls are given as the source filed them. The call rests on the fitted dose curve; in most records, active means well fitted inhibition curve with a large enough effect; inconclusive means small, poorly fitted or top-dose-only effect; inactive means flat fitted curve, though single readings scatter.
Tick one outcome: active, inactive

Ask: Which result was noted for this compound in the test: CC(C(=O)O)c1ccc(C(=O)c2ccccc2)s1 (stereo not drawn)
Reply: inactive

Ask: Which result was noted for this compound in the test: C/C(=N\O)c1ccc(OCC(=O)N2CCCCC2)cc1
Reply: inactive

Ask: Which result was noted for this compound in the test: Oc1c(Br)cc(Br)c2cccnc12
Reply: active

Ask: Which result was noted for this compound in the test: CN(C)c1ccc(C(=C2C=CC(=[N+](C)C)C=C2)c2ccccc2)cc1
Reply: active

Ask: Which result was noted for this compound in the test: COc1cccc2c1C(=O)c1c(O)c3c(c(O)c1C2=O)C[C@@](O)(C(=O)CO)C[C@@H]3O[C@H]1C[C@H](N)[C@H](O[C@@H]2CCCCO2)[C@H](C)O1
Reply: active

Ask: Which result was noted for this compound in the test: CC(N)C(=O)OC(C)(C)Cc1ccc(Cl)cc1 (stereo not drawn)
Reply: inactive

Ask: Which result was noted for this compound in the test: CN(C)CCn1nnnc1SCC1=C(C(=O)O)N2C(=O)[C@@H](NC(=O)Cc3csc(N)n3)[C@H]2SC1
Reply: inactive

Ask: Which result was noted for this compound in the test: c1ccc2sc(SN3CCOCC3)nc2c1
Reply: inactive

Ask: Which result was noted for this compound in the test: C=CCCCCCCCCC(=O)O
Reply: inactive

Ask: Which result was noted for this compound in the test: NCCO
Reply: inactive

Ask: Which result was noted for this compound in the test: N=C(N)N
Reply: inactive

Ask: Which result was noted for this compound in the test: CN1CCN(c2cc3c(nn2)Oc2ccccc2N3C)CC1
Reply: inactive

Ask: Which result was noted for this compound in the test: O=C(/C=C/c1ccccc1)NCCO
Reply: inactive
